Test system: BT-474
Test: Antiproliferative activity against human BT-474 cells
Format: functional, cell-based
pIC50: −log10 of the molar value.

- MOLECULE: "COc1cc2ncnc(Nc3ccc(F)c(Cl)c3)c2cc1NC(=O)/C=C/CN1CCCCC1 [DACOMITINIB ANHYDROUS]"
  SYSTEM TESTED: "BT-474"
  pIC50: 7.74

###

Tmax overview
Experiment: Tmax in Sprague-Dawley rat at 10 mg/kg, po administered as single dose
Assay type: ADME, organism-based
Conditions: in vivo
RECORDED METRIC: Tmax (h)

- COMPOUND: "C=CC(=O)Nc1cc(Nc2nccc(-c3cn(C)c4ccccc34)n2)c(OC)cc1[S+]([O-])CCN(C)C (configuration not stated)"
  RECORDED VALUE: 1
- COMPOUND: "C=CC(=O)Nc1cc(Nc2nccc(-c3cn(C4CC4)c4ccccc34)n2)c(OC)cc1[S+]([O-])CCN(C)C (configuration not stated)"
  RECORDED VALUE: 1.67

###

Biological target: Epidermal growth factor receptor (Homo sapiens, UniProt P00533, L858R)
Sequence (P00533 25-1210 L858R limits assumed): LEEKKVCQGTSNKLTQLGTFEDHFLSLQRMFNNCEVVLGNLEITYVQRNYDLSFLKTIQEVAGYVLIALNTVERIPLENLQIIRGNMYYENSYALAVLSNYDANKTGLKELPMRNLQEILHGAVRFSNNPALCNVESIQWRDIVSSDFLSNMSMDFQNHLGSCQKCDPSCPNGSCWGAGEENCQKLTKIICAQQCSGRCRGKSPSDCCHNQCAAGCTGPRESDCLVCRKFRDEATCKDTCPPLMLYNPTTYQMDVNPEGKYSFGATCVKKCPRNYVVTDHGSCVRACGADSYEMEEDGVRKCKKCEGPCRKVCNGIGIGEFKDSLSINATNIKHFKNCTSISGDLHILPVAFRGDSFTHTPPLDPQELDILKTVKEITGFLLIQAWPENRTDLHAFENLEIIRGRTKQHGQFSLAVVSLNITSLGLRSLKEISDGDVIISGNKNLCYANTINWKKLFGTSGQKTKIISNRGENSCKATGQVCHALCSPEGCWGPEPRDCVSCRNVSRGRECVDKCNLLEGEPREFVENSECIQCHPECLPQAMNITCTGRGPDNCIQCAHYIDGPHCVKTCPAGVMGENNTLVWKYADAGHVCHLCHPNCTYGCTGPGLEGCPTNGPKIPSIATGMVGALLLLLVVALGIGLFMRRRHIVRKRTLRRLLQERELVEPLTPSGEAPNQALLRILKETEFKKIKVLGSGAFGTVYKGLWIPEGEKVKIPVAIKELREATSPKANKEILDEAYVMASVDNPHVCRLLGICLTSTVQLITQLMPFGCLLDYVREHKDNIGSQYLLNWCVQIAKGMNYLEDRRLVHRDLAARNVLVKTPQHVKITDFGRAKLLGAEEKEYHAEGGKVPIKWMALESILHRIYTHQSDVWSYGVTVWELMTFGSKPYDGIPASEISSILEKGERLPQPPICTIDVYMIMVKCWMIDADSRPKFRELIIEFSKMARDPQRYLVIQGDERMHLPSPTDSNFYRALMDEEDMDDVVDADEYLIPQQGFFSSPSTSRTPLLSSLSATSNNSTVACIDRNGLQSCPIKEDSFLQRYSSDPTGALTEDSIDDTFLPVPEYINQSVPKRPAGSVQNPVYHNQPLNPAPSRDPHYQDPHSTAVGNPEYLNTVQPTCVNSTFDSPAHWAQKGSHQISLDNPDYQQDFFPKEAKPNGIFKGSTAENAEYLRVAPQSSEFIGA
Assay: Inhibition of human recombinant GST-tagged EGFR L858R mutant expressed in baculovirus expression system using tyrosine 4 peptide as substrate after 60 mins in presence of ATP FRET based Z'-LYTE assay
pIC50: −log10 of the molar value.
RECORDED METRIC: pIC50

- COMPOUND: "C=CC(=O)Nc1cc(Nc2nccc(-c3cn(C4CC4)c4ccccc34)n2)c(OC)cc1[S+]([O-])CCN(C)C (stereo unspecified)"
  SYSTEM TESTED: "Epidermal growth factor receptor (Homo sapiens, UniProt P00533, L858R)"
  RECORDED VALUE: 8.96

###

Assay: Half life in Sprague-Dawley rat at 10 mg/kg, po administered as single dose
Type: ADME, organism-based
Settings: in vivo
half-life overview
RECORDED METRIC: half-life (h)

- COMPOUND: "C=CC(=O)Nc1cc(Nc2nccc(-c3cn(C)c4ccccc34)n2)c(OC)cc1[S+]([O-])CCN(C)C (configuration not stated)"
  UNIT OF MEASUREMENT: "h"
  RECORDED VALUE: 1.43
- COMPOUND: "C=CC(=O)Nc1cc(Nc2nccc(-c3cn(C4CC4)c4ccccc34)n2)c(OC)cc1[S+]([O-])CCN(C)C (configuration not stated)"
  UNIT OF MEASUREMENT: "h"
  RECORDED VALUE: 2.51

###

Experiment: Antiproliferative activity against human DiFi cells
Type: functional, cell-based
RECORDED METRIC: IC50 (nM)

- COMPOUND: "C#Cc1cccc(Nc2ncnc3cc(OCCOC)c(OCCOC)cc23)c1"
  RECORDED METRIC: "IC50"
  UNIT OF MEASUREMENT: "nM"
  RECORDED VALUE: 20

###

AUC(0-t) overview
Assay: AUC (0 to t) in Sprague-Dawley rat at 10 mg/kg, po administered as single dose
Format: ADME, organism-based
Parameters: dose 10 mg/kg
Conditions: in vivo

- COMPOUND: "C=CC(=O)Nc1cc(Nc2nccc(-c3cn(C4CC4)c4ccccc34)n2)c(OC)cc1[S+]([O-])CCN(C)C (configuration not stated)"
  AUC(0-t) (ng·h/mL): 676
- COMPOUND: "C=CC(=O)Nc1cc(Nc2nccc(-c3cn(C)c4ccccc34)n2)c(OC)cc1[S+]([O-])CCN(C)C (configuration not stated)"
  AUC(0-t) (ng·h/mL): 635
